Give measured tissue uptake at 1 h for each item. Keep answers brief.
Experiment: Biodistribution studies in mice (radioiodinated compounds, % ID/g-tissue)
Assay type: in vivo
Conditions: mouse, kidney, iv, kidney, 60', tracer level, but MDTA-Na 0.18M and MDTA-NMG 0.19M, read-out: Biodistribution, Kidney 60'
Just the number in %ID/g, nothing appended.

Measured tissue uptake at 1 h of CC(=O)N(C)c1c(I)c(C(=O)NCCCCCCCCCCCC(=O)O)c(I)c(N(C)C(C)=O)c1I [Example F12-DP-MDTA] : 0.07

# tissue uptake at 1 h (compound: CC(=O)N(C)c1c(I)c(C(=O)NCCCC(=O)O)c(I)c(N(C)C(C)=O)c1I [Example F4-DP-MDTA] ) is 0.05

Sample CC(=O)N(C)c1c(I)c(C(=O)Nc2ccc(CCCCCCC(=O)O)cc2)c(I)c(N(C)C(C)=O)c1I [Example F7-P-MDTA] ; tissue uptake at 1 h observed: 0.3

Lab note: CC(=O)N(C)c1c(I)c(C(=O)Nc2ccc(CCCCCCCCCCC(=O)O)cc2)c(I)c(N(C)C(C)=O)c1I [Example F11-P-MDTA] gave tissue uptake at 1 h of 0.1

Form field tissue uptake at 1 h, entry CC(=O)N(C)c1c(I)c(C(=O)Nc2ccc(CCCCCCCCCCCCCCCCCCC(=O)O)cc2)c(I)c(N(C)C(C)=O)c1I [Example F19-P-MDTA] : 2.67

Field tissue uptake at 1 h (entry CC(=O)N(C)c1c(I)c(C(=O)Nc2ccc(CCCCCCCCCCCCCCC(=O)O)cc2)c(I)c(N(C)C(C)=O)c1I [Example F15-P-MDTA] ) reads 0.34

Looking up CC(=O)N(C)c1c(I)c(C(=O)NCCCCCCC(=O)O)c(I)c(N(C)C(C)=O)c1I [Example F7-DP-MDTA] , I found its tissue uptake at 1 h recorded as 0.16

Per the record, CC(=O)N(C)c1c(I)c(C(=O)NCC(=O)O)c(I)c(N(C)C(C)=O)c1I [Example F2-DP-MDTA] has tissue uptake at 1 h of 0.16

Per the record, CC(=O)N(C)c1c(I)c(C(=O)Nc2ccc(CC(=O)O)cc2)c(I)c(N(C)C(C)=O)c1I [Example F2-P-MDTA] has tissue uptake at 1 h of 0.33

Short answer for CC(=O)N(C)c1c(I)c(C(=O)Nc2ccc(CCCC(=O)O)cc2)c(I)c(N(C)C(C)=O)c1I [Example F4-P-MDTA] : tissue uptake at 1 h was 0.63
